Source of measurements: PubChem BioAssay (NCATS)

# TEST NAME: NFAT Signaling Pathway (AID 444);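 also: carbachol stimulus at about its EC50 of 1 µM final; % is scaled to controls: 0 for no effect and ±100 for the full control effect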
# TEST PARAMETERS: Jurkat NFAT-bla M1, carbachol, beta-lactamase ratio, 5 h; at 7.69 µM (top of the series) unless noted
Records with an inconclusive call do not appear. Calls of active or inactive are those of the source. Calls follow the shape of the dose curve; as a rule, active = well fitted curve in either direction with a large enough effect (not every such curve was filed as active); inconclusive = small, poorly fitted or top-dose-only effect, or another doubt; inactive = flat fitted curve, though single readings scatter.
Outcomes: active, inactive

| STRUCTURE SMILES | CATEGORY LABEL |
| --- | --- |
| CCN(CC)COC(=S)S | inactive |
| Cc1ncc(CSc2ccccc2N)c(CO)c1O | inactive |
| CC[C@@H](Nc1ncnc2nc[nH]c12)C(=O)O | inactive |
| NCC(=O)[C@@H](O)[C@H](O)[C@H](O)CO | inactive |
| Cc1cc(C)c(O)c(Cc2cccc(Cc3cc(C)cc(C)c3O)c2O)c1 | inactive |
| COc1ccc(C[C@@H]2C(=O)N[C@H](C)C(=O)N(C)[C@@H]3Cc4ccc(cc4)Oc4cc(ccc4O)C[C@H](C(=O)N[C@@H](C)C(=O)N[C@H](C)C(=O)N2C)N(C)C3=O)cc1 | active |
| c1nnc(NCNc2nncs2)s1 | inactive |
| O=C(O)[C@@H]1CCCN1Cc1c[nH]c2ccccc12 | inactive |
| O=C(O)c1ccncc1.O=C(O)c1ccncc1.[NH2-].[NH2-].[Pt] | inactive |
| Cc1ccc(N(Cc2ccccc2)Cc2ccccc2)cc1 | inactive |
| NCCSCCc1ccccc1 | inactive |
| Clc1ccc2c(N3CCC(CCC4CCN(c5ncnc6cc(Cl)ccc56)CC4)CC3)ncnc2c1 | inactive |

* * *

# TEST NAME: NFAT Signaling Pathway (AID 444);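 also: carbachol stimulus at about its EC50 of 1 µM final; % is scaled to controls: 0 for no effect and ±100 for the full control effect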
# TEST PARAMETERS: Jurkat NFAT-bla M1, carbachol, beta-lactamase ratio, 5 h; at 7.69 µM (top of the series) unless noted
Results filed as inconclusive are left out. The source made the active and inactive calls. Calls follow the shape of the dose curve; as a rule, active = well fitted curve in either direction with a large enough effect (not every such curve was filed as active); inconclusive = small, poorly fitted or top-dose-only effect, or another doubt; inactive = flat fitted curve, though single readings scatter.
Outcomes: active, inactive

| STRUCTURE SMILES | CATEGORY LABEL |
| --- | --- |
| [N-]=[N+]=N[C@@H]1[C@H](O)[C@H](CO)O[C@@H]1n1cnc2c(N)ncnc21 | inactive |
| COc1cc(NCC[C@@H]2CCCCN2)c2ncccc2c1 | inactive |
| CCN(CC)CCN1C(=O)c2cccc3cc(N)cc(c23)C1=O | inactive |
| O=C(O)c1cccc(OCCO)c1 | inactive |
| O=[N+]([O-])c1ccc(S(=O)(=O)Cc2ccccc2)c([N+](=O)[O-])c1 | active |
| O=C(O)c1nnsc1-c1csnn1 | inactive |

* * *

# ASSAY SYSTEM: Glucocorticoid receptor (Homo sapiens) (UniProt P04150)
# Sequence (P04150 whole entry, looked up): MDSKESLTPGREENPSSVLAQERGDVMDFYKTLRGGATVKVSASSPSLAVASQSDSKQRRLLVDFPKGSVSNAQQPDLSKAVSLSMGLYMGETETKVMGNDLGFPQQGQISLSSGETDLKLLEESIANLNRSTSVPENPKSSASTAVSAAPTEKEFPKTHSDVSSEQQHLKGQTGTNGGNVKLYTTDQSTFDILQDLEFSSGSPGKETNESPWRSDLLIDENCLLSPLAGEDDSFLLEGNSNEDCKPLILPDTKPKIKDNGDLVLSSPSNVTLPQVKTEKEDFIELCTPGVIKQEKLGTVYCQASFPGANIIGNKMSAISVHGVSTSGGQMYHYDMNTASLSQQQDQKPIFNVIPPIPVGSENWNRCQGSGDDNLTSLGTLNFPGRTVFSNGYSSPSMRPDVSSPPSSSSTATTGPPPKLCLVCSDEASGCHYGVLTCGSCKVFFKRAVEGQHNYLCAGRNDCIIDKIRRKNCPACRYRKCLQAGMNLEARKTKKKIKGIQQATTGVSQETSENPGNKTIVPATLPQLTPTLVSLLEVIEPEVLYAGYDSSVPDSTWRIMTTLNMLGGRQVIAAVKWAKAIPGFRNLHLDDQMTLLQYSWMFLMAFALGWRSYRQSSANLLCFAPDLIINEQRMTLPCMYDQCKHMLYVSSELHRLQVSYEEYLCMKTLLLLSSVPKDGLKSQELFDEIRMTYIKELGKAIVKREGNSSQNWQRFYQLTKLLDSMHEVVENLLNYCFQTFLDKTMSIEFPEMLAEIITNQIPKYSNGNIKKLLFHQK
# TEST NAME: GR-GFP Redistribution (AID 450); also: potency is read from the fitted curve at half-maximal effect
# TEST PARAMETERS: U2OS GR-GFP nuclear translocation, laser cytometry, 2 h
Active and inactive are the calls of the source.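 The calls were made as follows: active = compounds whose dose series gives a full or clear partial fitted curve of increased nuclear translocation; inconclusive = weak partial curve or effect only at the top dose; inactive = no dose-dependent translocation response.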

| STRUCTURE SMILES | ASSAY SYSTEM | Potency |
| --- | --- | --- |
| Clc1ccc(-c2nnc(-c3cccc4ccccc34)o2)cc1Cl | Glucocorticoid receptor (Homo sapiens) (UniProt P04150) | > 46 µM (inactive) |
| N#C/C(=C\NC(=S)c1ccncc1)c1nc2ccccc2s1 | Glucocorticoid receptor (Homo sapiens) (UniProt P04150) | > 46 µM (inactive) |
| Cn1c(=S)c2[nH]c(SCc3cccnc3)nc2n(C)c1=O | Glucocorticoid receptor (Homo sapiens) (UniProt P04150) | > 46 µM (inactive) |
| CC[C@@H](Nc1ncnc2nc[nH]c12)C(=O)O | Glucocorticoid receptor (Homo sapiens) (UniProt P04150) | > 46 µM (inactive) |
| CC[C@H]1CC[C@H]2[C@@H]3CC=C4C[C@H](OC(C)=O)[C@@H](N)C[C@@]4(C)[C@H]3CC[C@@]12C | Glucocorticoid receptor (Homo sapiens) (UniProt P04150) | > 46 µM (inactive) |

* * *

# max response values compiled below
# ASSAY SYSTEM: Peroxisome proliferator-activated receptor alpha (Homo sapiens)
# TEST NAME: qHTS assay for small molecule agonists of the peroxisome proliferator-activated receptor alpha (PPARalpha) signaling pathway (AID 651778); also: % of control where 0% means no effect
# TEST PARAMETERS: PathHunter PPARalpha complementation, chemiluminescence, 6 h; hits give high values
The source made the active and inactive calls. The call rests on the fitted dose curve; in most records, active means well fitted activation curve with a large enough effect; inconclusive means small, poorly fitted or top-dose-only effect; inactive means flat fitted curve, though single readings scatter.

| COMPOUND | max response |
| --- | --- |
| CCCCCCc1ccc(-c2ccc(C#N)cc2)cc1 | -3.23% (inactive) |
| C/C(Cl)=C/CCl | -4.68% (inactive) |
| NC(=O)Nc1nc2ccccc2[nH]1 | -2.7% (inactive) |
| Nc1cnn([C@@H]2O[C@H](CO)[C@@H](O)[C@H]2O)c(=O)n1 | -1.23% (inactive) |
| CC1=C(/C=C/C(C)=C/C=C/C(C)=C/C=O)C(C)(C)CCC1 | -2.8% (inactive) |
| Cc1cc(-c2ccc(N=Nc3cc(S(=O)(=O)O)c4ccccc4c3N)c(C)c2)ccc1N=Nc1cc(S(=O)(=O)O)c2ccccc2c1N | -11.9% (inactive) |
| Clc1nc2ccccc2nc1Cl | 0.306% (inactive) |
| Brc1ccc(-c2ccccc2)cc1 | -2.37% (inactive) |
| C1CCCNCC1 | 0.101% (inactive) |
| c1ccc(CSCc2ccccc2)cc1 | -0.51% (inactive) |
| CCCCCCCC/C=C\CCCCCCCC(=O)N(CCO)CCO | 28.4% (inactive) |
| O=[N+]([O-])c1cccc(I)c1 | -0.601% (inactive) |
| C=C1CC[C@H](O)C/C1=C/C=C1\CCC[C@]2(C)[C@@H]([C@H](C)CCCC(C)C)CC[C@@H]12 | -0.403% (inactive) |
| CCCCCCN | 1.86% (inactive) |
| CC(/C=C/C=C(C)/C=C/C(=O)O)=C\C=C\C=C(C)\C=C\C=C(C)\C=C\C(=O)O | -2.62% (inactive) |
| CCN(CC)c1ccc(N)cc1 | -0.774% (inactive) |
| O=C1OC(=O)c2ccccc21 | 5.7% (inactive) |
| CCNC(=S)NCC | -2.88% (inactive) |
| Oc1cc(Cl)cc(Cl)c1Cl | 6.36% (inactive) |
| C[Si](C)(C)Cl | -1.44% (inactive) |
| Oc1cc2c(cc1O)[C@H]1c3ccc(O)c(O)c3OC[C@@]1(O)C2 | -1.65% (inactive) |
| C/C=C/C=C/C=O | -0.84% (inactive) |
| C=C(C#N)C(=O)OCC | -1.15% (inactive) |
| CC(C)OCC1CO1 (stereo not drawn) | -4.21% (inactive) |
| O=c1[nH]ncc2ccccc12 | -3.48% (inactive) |
| O=C(O)c1cc(N=Nc2ccc([N+](=O)[O-])cc2)ccc1O | -12.2% (inactive) |
| OCC(CBr)(CBr)CBr | 1.63% (inactive) |
| CC(=O)OCc1ccc2c(c1)OCO2 | -4.72% (inactive) |
| O=C=Nc1ccc(Cl)c(Cl)c1 | 21.6% (inactive) |
| CCc1ccc(C(c2ccc(CC)cc2)C(Cl)Cl)cc1 | -1.02% (inactive) |
| O=C(O)/C=C/c1ccc(/C=C/C(=O)O)cc1 | -4.38% (inactive) |
| CCCCC(CC)COP(=O)(OCC(CC)CCCC)OCC(CC)CCCC (stereo not drawn) | -6.02% (inactive) |
| c1ccc(SCCSc2ccccc2)cc1 | 2.97% (inactive) |

* * *

# ASSAY SYSTEM: Cytochrome P450 2D6 (Homo sapiens)
# TEST NAME: qHTS Assay for Inhibitors and Substrates of Cytochrome P450 2D6 (AID 891); also: nearly all actives have a fitted effect of over 60% in size; also: potency is read from the fitted curve at half-maximal effect
# TEST PARAMETERS: recombinant CYP2D6, luciferin-ME EGE luminescence; series mostly up to 11.4 µM
Records with an inconclusive call do not appear. Calls of active or inactive are those of the source. The call rests on the fitted dose curve; in most records, active means well fitted inhibition curve with a large enough effect; inconclusive means small, poorly fitted or top-dose-only effect; inactive means no such curve, though single readings can be large or run the other way.

| STRUCTURE SMILES | Potency |
| --- | --- |
| O=c1c2ccccc2sc2c(CO)ccc(NCCN3CCCCC3)c12 | 1.26 µM (active) |
| C[C@H]1[C@H](O)[C@@H](C)C=CC=CC=CC=CC=CC=CC=C[C@H](O[C@@H]2O[C@@H](C)[C@H](O)[C@@H](N)[C@@H]2O)C[C@@H]2O[C@](O)(C[C@@H](O)C[C@@H](O)[C@@H](O)CC[C@@H](O)C[C@@H](O)CC(=O)O[C@H]1C)C[C@H](O)[C@H]2C(=O)O | inactive |
| O=S1(=O)[C@H]([C@H]2CC3c4ccccc4C2c2ccccc23)[C@@H](N2CCCCC2)[C@@H]1c1ccccc1 | 3.16 µM (active) |
| CC1=C(\C=C/C(C)=C/C=C\C(C)=C\C(=O)Nc2ccc(O)cc2)C(C)(C)CCC1 | inactive |
| CN1CCc2ccccc2[C@@H]1Cc1ccccc1NC(=O)c1sc2ccccc2c1Cl | 0.0794 µM (active) |
| CC[C@@H]1CN2CCc3cc(OC)c(OC)cc3[C@H]2C[C@@H]1C[C@H]1NCCc2cc(OC)c(OC)cc21 | inactive |
| C/C(=N/Nc1ccc2ccccc2n1)c1ccccc1O | 0.794 µM (active) |
| CC(C)CNC(=O)O | inactive |
